Tested on: OVCAR-8 ovarian
Assay: NCI tumour cell line growth inhibition, 48 h
Readout Label: TGI

What value of TGI on OVCAR-8 ovarian does CCOC(=O)C1=CNC(C(=O)OCC)C1c1cccn1-c1ccccc1 (centres undefined) have?
> 100 µM

What value of TGI on OVCAR-8 ovarian does "CC1=NC=C(O)c2ccccc2O1" have?
> 100 µM

What value of TGI on OVCAR-8 ovarian does "COC(=O)c1nc(C(=O)OC)c2c([nH]c3ccccc32)c1C(=O)OC" have?
> 100 µM

What value of TGI on OVCAR-8 ovarian does NC(Cc1ccccc1)c1nn[nH]n1 (centres undefined) have?
> 100 µM

What value of TGI on OVCAR-8 ovarian does "NC(=O)CCc1ccccc1Oc1nccc(-c2c(-c3ccc(F)cc3)ncn2C2CCNCC2)n1" have?
> 25 µM

What value of TGI on OVCAR-8 ovarian does "CC(=O)CC(=O)NC=O" have?
> 100 µM

What value of TGI on OVCAR-8 ovarian does [N-]=[N+]=CC(=O)OCC1NC(=O)C(COC(=O)C=[N+]=[N-])NC1=O (centres undefined) have?
> 100 µM

What value of TGI on OVCAR-8 ovarian does CC(=O)OCC1OC(OC(C)=O)C(Nc2ncc(-c3ccc(C)cc3)s2)C(OC(C)=O)C1OC(C)=O (centres undefined) have?
69.9 µM

What value of TGI on OVCAR-8 ovarian does "CCCCOC(=O)NC(Nc1ccc(S(=O)(=O)Nc2ncccn2)cc1)(C(F)(F)F)C(F)(F)F" have?
> 100 µM

What value of TGI on OVCAR-8 ovarian does "C/C(=N/NC(=S)N1CC2CCC(CC2)C1)c1cnccn1" have?
11.8 µM

What value of TGI on OVCAR-8 ovarian does "NC(=N\N=C/c1ccc(Cl)cc1Cl)/C(N)=N\N=C/c1ccc(Cl)cc1Cl" have?
> 100 µM

What value of TGI on OVCAR-8 ovarian does CC1CCC2CC1NC(=O)CCOCCC(=O)NC2(C)C (centres undefined) have?
> 100 µM

What value of TGI on OVCAR-8 ovarian does "O=C(/C=C/c1nnc2n(Cc3ccccc3)c(=O)c3c4c(sc3n12)CCCC4)c1ccccc1" have?
0.419 µM

What value of TGI on OVCAR-8 ovarian does "O=C1/C(=C/c2ccc(Cl)cc2)N=C(c2ccccc2)N1/N=C/c1ccccc1O" have?
34.6 µM

What value of TGI on OVCAR-8 ovarian does "O=C1C(=C([O-])c2ccccc2)C(=O)c2ccccc21.O=C1C(=C([O-])c2ccccc2)C(=O)c2ccccc21.[Co+2]" have?
> 100 µM

What value of TGI on OVCAR-8 ovarian does COc1cc(/C=C/C(=O)c2ccc(F)cc2)ccc1OCCCCCOc1cc2c(cc1OC)C(=O)N1CCCC1C=N2 (centres undefined) have?
3.28 µM

What value of TGI on OVCAR-8 ovarian does "O=C1C=CC(=O)N1c1ccc(I)cc1" have?
> 100 µM

What value of TGI on OVCAR-8 ovarian does "Cn1c2cc([N+](=O)[O-])ccc2c(=O)c2c(O)cc3c(c21)C=CC(C)(C)O3" have?
> 100 µM

What value of TGI on OVCAR-8 ovarian does CN(C)CC1CCCCCCCCCCCCC(CN(C)C)C1=O (centres undefined) have?
22.4 µM

What value of TGI on OVCAR-8 ovarian does COC(=O)CC(CNC(=O)OCc1ccccc1)OCc1ccc(OC)cc1 (centres undefined) have?
> 100 µM

What value of TGI on OVCAR-8 ovarian does "CCOC(=O)c1cn(CC)c2ccc3ccsc3c2c1=O" have?
> 100 µM

What value of TGI on OVCAR-8 ovarian does "OCCCc1cnco1" have?
> 100 µM

What value of TGI on OVCAR-8 ovarian does "N#C/C(=C\c1ccc(F)cc1)n1nc2cccc(F)c2n1" have?
> 100 µM

What value of TGI on OVCAR-8 ovarian does CC(Cc1cccc2c1Nc1ccccc1S2)N(C)CCO (centres undefined) have?
> 100 µM

What value of TGI on OVCAR-8 ovarian does "O=C(O)CNCCc1ccccc1" have?
> 100 µM

What value of TGI on OVCAR-8 ovarian does "O=C(O)c1cn(C2CC2)c2cc(N3CCN(C(=O)Nc4nc(-c5ccc(Br)cc5)cs4)CC3)c(F)cc2c1=O" have?
> 100 µM

What value of TGI on OVCAR-8 ovarian does "O=C1CCCC2=C1CC1=C(CCCC1=O)N2c1ccc([N+](=O)[O-])cc1" have?
> 100 µM

What value of TGI on OVCAR-8 ovarian does O=c1[nH]c(F)nc2c1ncn2C1OC(CO)C(O)C1O (centres undefined) have?
> 100 µM

What value of TGI on OVCAR-8 ovarian does "Cc1cc(=O)oc2cc(OC(=O)Nc3ccccc3)ccc12" have?
> 100 µM

What value of TGI on OVCAR-8 ovarian does "FC(F)(F)c1cc(-c2ncn(/C=C\c3nnco3)n2)cc(C(F)(F)F)c1" have?
> 47.7 µM

What value of TGI on OVCAR-8 ovarian does "CC(C)(Oc1ccc2c(=O)cc(-c3ccccc3)oc2c1)C(=O)N1CCN(c2ccccc2)CC1" have?
> 10 µM

What value of TGI on OVCAR-8 ovarian does "Cn1c(=O)c2[nH]c(CCCc3ccc([N+](=O)[O-])cc3)nc2n(C)c1=O" have?
> 100 µM

What value of TGI on OVCAR-8 ovarian does "CCCn1c(=O)c2nn3c(=O)n(CCC)c(=O)c3nn2c1=O" have?
> 100 µM

What value of TGI on OVCAR-8 ovarian does "O=[N+]([O-])/C=C/c1cc2ccc3ccccc3c2[nH]1" have?
> 21 µM

What value of TGI on OVCAR-8 ovarian does "O=C1CCSc2nc(-c3ccc4c(c3)OCO4)nn21" have?
> 10 µM

What value of TGI on OVCAR-8 ovarian does "CC(=O)Oc1c(Br)ccc2cc(C(Br)Br)c(C(=O)c3ccccc3)nc12" have?
53 µM

What value of TGI on OVCAR-8 ovarian does "O=C(NS(=O)(=O)c1ccc(NC[C@H]2COCCO2)c([N+](=O)[O-])c1)c1ccc(N2CCN(CC3=C(c4ccc(Cl)cc4)CC4(CCC4)CC3)CC2)cc1Oc1cnc2[nH]ccc2c1" have?
5.06 µM

What value of TGI on OVCAR-8 ovarian does CCC(c1ccc(OC)cc1)C1NC(=S)NC1=O (centres undefined) have?
> 50 µM

What value of TGI on OVCAR-8 ovarian does CCCCCCCC(CC(=O)NC(CO)C(=O)NC(CO)CC(C)C)OC(=O)CC(CCCCCCC)OC(=O)CC(CCCCCCC)OC1OC(C)C(O)C(OC2OC(C)C(O)C(O)C2O)C1O (centres undefined) have?
34.4 µM

----------
System: MDA-MB-231 breast
Experiment: NCI tumour cell line growth inhibition, 48 h
Assignment: determine reported TGI for the given molecules.
Only the number, expressed in µM, is required.

Query (molecule): Oc1ccc(Cc2ccc(O)c(C3CC(c4ccc(Cl)cc4)=NN3)c2)cc1C1CC(c2ccc(Cl)cc2)=NN1 (stereo not given) ; field requested: TGI
8.94

Query (molecule): "CCOC(=O)Nc1ccc2c(c1)N(C(=O)CCN(CC)CC)c1ccccc1S2" ; field requested: TGI
95.1

----------
Assignment: determine reported TGI for the given compounds.
Tested on: SR leukemia
Test: NCI tumour cell line growth inhibition, 48 h
Only the number, expressed in µM, is required.

Query (compound): C=C1CC(C)(COc2cc(=O)oc3ccccc23)OC1=O (stereo not given) ; field requested: TGI
11.2

Query (compound): NC(CO)c1ccc(OCc2ccccc2)cc1 (stereo not given) ; field requested: TGI
81.5

----------
System: K-562 leukemia
Assay: NCI tumour cell line growth inhibition, 48 h; in the data active means GI50 below about 0.43 µM; inactive means the rest
Pick one and only one: true for active, false for inactive

Entry "O=C1c2cccnc2C(=O)c2c1c(C(=O)OCCc1ccccn1)c1ccccn21" : call = ?
true

Entry "COc1cc2c3c(n(CCCN4CCCNCC4)c(=O)c2cc1OC)-c1cc2c(cc1C3=O)OCO2" : call = ?
false

Entry "O=C(Nc1ccc(I)cc1)c1cccc([N+](=O)[O-])c1O" : call = ?
false

----------
Test system: OVCAR-5 ovarian
Assay: NCI tumour cell line growth inhibition, 48 h
Readout Label: TGI

Query (compound): "COc1cc2c3c(n(CCCN4CCCNCC4)c(=O)c2cc1OC)-c1cc2c(cc1C3=O)OCO2" ; field requested: TGI
9.69 µM

Query (compound): "O=[N+]([O-])/C=C/c1cc2ccc3ccccc3c2[nH]1" ; field requested: TGI
4.55 µM

Query (compound): "O=C1Nc2ccccc2/C1=C\c1c(-c2ccccc2)nc2n1CCS2" ; field requested: TGI
58.5 µM

Query (compound): C/C(=N\O)C1CC2C=C(C#N)C1N(Cc1ccccc1)C2 (stereo unspecified) ; field requested: TGI
> 100 µM

Query (compound): "Cn1c(=O)c2[nH]c(CCCc3ccc([N+](=O)[O-])cc3)nc2n(C)c1=O" ; field requested: TGI
> 100 µM

Query (compound): "NC(=S)N/N=C(\CCC(=O)Nc1ccccc1[N+](=O)[O-])CC(=O)c1ccco1" ; field requested: TGI
> 100 µM

Query (compound): "O=C(O)CNCCc1ccccc1" ; field requested: TGI
> 100 µM

Query (compound): "Cc1c(-c2nc(N)c(C#N)c(N)c2C#N)c(=O)oc2ccccc12" ; field requested: TGI
> 100 µM

Query (compound): NC(Cc1ccccc1)c1nn[nH]n1 (stereo unspecified) ; field requested: TGI
> 100 µM

Query (compound): N#CC(/C(=N/NC(N)=S)C(=O)Nc1cccc(Cl)c1)c1ccccc1 (stereo unspecified) ; field requested: TGI
> 100 µM

Query (compound): "CCOC(=O)/C(=C/c1ccccc1Br)P(=O)(OCC)OCC" ; field requested: TGI
5.92 µM
